- STUDY_SYSTEM: T1, hIL-18BP-hFc (human, UniProt O95998 31-194, limits assumed)
- T1 sequence (looked up): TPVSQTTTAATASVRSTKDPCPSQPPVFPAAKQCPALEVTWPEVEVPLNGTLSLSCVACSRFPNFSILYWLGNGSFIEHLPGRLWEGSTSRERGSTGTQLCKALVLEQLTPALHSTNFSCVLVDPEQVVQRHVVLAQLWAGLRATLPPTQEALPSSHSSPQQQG
- ASSAY_REMARKS: cell-based or functional assay
Lab note: cut-off is 0.9 fold. Strictly less in EC50 Fold Change (+BP/-BP), hIL-18 reporter assay is y. Exactly 0.9 fold or more is n.

- BINDER: "IL-18 variant polypeptide M26 (ligand) YFPKLRSKLSVIRNLNDQVLFIDQGNRPLFEDMTDSDCRDNAPRTIFIISMYKHSDKRGMAVTISVKCEKISTLSCENKIISFKEMNPPDVIKDTKSDIIFFQYSVPGHDNKMQFESSSYEGYFLACEKERDLFKLILKKEDELGDRSIMFTVQNED"
  LABEL: "n"

Okay, next one:
Problem: State whether 0.9 fold exceeds EC50 Fold Change (+BP/-BP), hIL-18 reporter assay recorded for IL-18 variant polypeptide M6 (ligand) YFPKLRSKLSVIRNLNDQVLFIDQGNRPLFEDMTDSDCRDNAPRTIFIISMYKWSTPRGMAVTISVKCEKISTLSCENKIISFKEMNPPDVIKDTKSDIIFFQTSVPGHDNKMQFESSSYEGYFLACEKERDLFKLILKKEDELGDRSIMFTVQNED .
Result: y
